Assayed System: SUDV GP [change] (Sudan ebolavirus) (UniProt Q7T9D9)
# log10 of EC50 listing for each entry below
Quantity: log10 of EC50 (log10 of the value in µg/mL)

[[record]]
binder = "EBOV-524 (antibody, V domains shown) VH: QVQLVESGGGVVQPGGSLRLSCAASGFKFSTYGMNWVRQVPGQGLEWVSFVRHDGSNKYYSDSVKGRFTIFRDNSNNKLYLQMNNLRAEDTAVYYCAKDVLDCSRADCFIYYYYMDVWGKGTLVTVSS VL: DIQMTQSPSSVSASPGDRVTITCRASQTISGWLAWYQQKPGKAPKLLIYDVSTLQSGVPSRFSGGGSGTEFTFTISSLQPEDYATYFCQQGNRIPLSFGGGTRVEIK"
measured_number = -0.15

[[record]]
binder = "EBOV-514 (antibody, V domains shown) VH: QVQLQESGPGLVKPSQTLSLTCTVSGASITGGDDFWSWIRQPPGKGLEWIGFIHHSGNAYYRSSLKSRVHFSVDTSKDQFSLTLTSVTAADTAVYYCARDKAQAYGLLYHYHTDVWGKGTLVTVSS VL: EIVMTQSPATLSVSPGERATLSCRASQSVSSNLAWYQQKPGLAPRLLIYGAFTRATDIPDRFSGSGSGTEFTLTISSLQSEDFAIYYCQYYNDWPPGYTFGQGTKLEIK"
measured_number = -1.82

[[record]]
binder = "EBOV-451 (antibody, V domains shown) VH: EVQLVESGGSVVRPGGSLRLSCAASGFKFDEYGMSWVRQAPGKGLEWVSGITWNGGVRTYADSVKGRFTISRDNAKNSVYLQMKSLRGEDTALYYCVSWGERYDAYFDYWGQGTLVTVSS VL: EIVLTQSPGSLSLSPGERATLSCRASQSVNSRYFAWYQQRPGQAPRLLIYATSTRATGIPDRFSGSGSGTDFTLTISRLEPEDFAVYSCQQYGSSPYTFGQGTKLEIK"
measured_number = -2.52

[[record]]
binder = "EBOV-510 (antibody, V domains shown) VH: QVQLQESGPGLVKPSQTLSLTCTVSGGSITSGDYYLTWVRQPPGKGLEWIGHIYYSGSTSYNPSLKSRLLMSVDTSKNQFSLRLSSVTAADTAVYYCARESDGDPSRLYFYFAMDVWGQGTLVTVSS VL: QSALTQPASVSGSPGQSITISCTGTSSDVGGSYFVSWYQHHPGKAPKLMISEVSNRPSGVSNRFSGSKSGNTASLTISGLRTEDEADYYCSSYTSNTTLVFGGETKVTVL"
measured_number = 0.49

[[record]]
binder = "EBOV-434 (antibody, V domains shown) VH: QVQLVQSGAEVKKPGASVKVSCKASGYTFTGYYMFWVRQAPGQGLEWMGWINPNSGGTNYTQKFQGRVTMTRDTSISTAYMELSRLKSDDTAVYYCARDSGELLFVGSDVWGQGTLVTVSS VL: DIQMTQSPSSVSASVGDRVTITCRASLDISYWLAWYQQKPGKAPKLLIYAASNLQSGVPSRFSGSGSGTDFTLTISSLQPEDFATYYCQQANSFPQTFGQGTRLELK"
measured_number = 0.05

